These data points were gathered from PubChem BioAssay (EPA / NIEHS).

Biological target: human Peroxisome Proliferator-activated Receptor alpha (PPARa), PPARA (gene 5465)
Experiment: ATG_PPARa_TRANS: Attagene TRANS-FACTORIAL HepG2 Assay for human Peroxisome Proliferator-activated Receptor alpha (PPARa) (AID 2283001)
Procedure: ATG_TRANS is a cell-based, multiplexed-readout assay that uses HepG2, a human liver cell line, with measurements taken at 24 hours after chemical dosing in a 24-well plate.ATG_PPARa_TRANS is one of 30 assay component(s) measured or calculated from the ATG_TRANS assay. […] This assay endpoint, ATG_PPARa_TRANS, was analyzed in the positive analysis fitting direction relative to DMSO as the negative control and baseline of activity. […]
Results filed as inconclusive are left out. Active and inactive are the calls of the source. How the source made its calls: active means hit-call score of the fitted dose curve at least 0.9, where 1 is the maximum; inconclusive means response in the unintended direction; inactive means score below 0.9.
Lab note: assign the record to one of class 1 for active, class 0 for inactive

> print(dat)
                        structure.as.smiles                            assayed.system  label.class
1                                      NC=O  human Peroxisome Proliferator-activated Receptor alpha (PPARa), PPARA (gene 5465)      class 0
2                                 CCOCCOCCO  human Peroxisome Proliferator-activated Receptor alpha (PPARa), PPARA (gene 5465)      class 0
3  Nc1nc(Cl)nc2c1ncn2[C@H]1C[C@H](O)[C@@H](CO)O1  human Peroxisome Proliferator-activated Receptor alpha (PPARa), PPARA (gene 5465)      class 1
4                                Oc1ccccc1O  human Peroxisome Proliferator-activated Receptor alpha (PPARa), PPARA (gene 5465)      class 0

Task item: Hi, sorry to bother you, what did the test record for CC(=O)[C@@]1(O)CC[C@H]2[C@@H]3CCC4=CC(=O)CC[C@]4(C)[C@H]3CC[C@@]21C ?
Reply: class 0
